molecular target: NPH-II (vaccinia virus, UniProt P12927 1-676); assay: smFRET
pKd: −log10 of the molar value.
quantity_name: pKd

binder="smFRET bipartite RNA with two extra 3' U on complementary strand (dsRNA, 3' biotin on strand 2) RNA 1: AGCACCGUAAAGACGCAGCCAGCAUCAAUGACAUCAGCAUCAA RNA 2: GCUGCGUCUUUACGGUGCUUU" quantity_name=pKd recorded_value=9.04
